# System: Escherichia coli
# protocol.text: Antimicrobial activity against oqxAB positive Escherichia coli C600 W322-T transconjugant by CLSI agar dilution method
# Type: functional
property.label: MIC

Incoming: GET MIC | system: Escherichia coli | item: `CC(=O)c1c(C)[n+]([O-])c2ccccc2[n+]1[O-]`
Outgoing: 256 µg/mL

Incoming: GET MIC | system: Escherichia coli | item: `CCn1cc(C(=O)O)c(=O)c2ccc(C)nc21`
Outgoing: 64 µg/mL

Incoming: GET MIC | system: Escherichia coli | item: `CN[C@@H]1[C@H](O[C@H]2[C@H](O[C@H]3[C@H](O)[C@@H](O)[C@H](N=C(N)N)[C@@H](O)[C@@H]3N=C(N)N)O[C@@H](C)[C@]2(O)C=O)O[C@@H](CO)[C@H](O)[C@H]1O`
Outgoing: > 515 µg/mL

Incoming: GET MIC | system: Escherichia coli | item: `CCN1CCN(c2cc3c(cc2F)c(=O)c(C(=O)O)cn3C2CC2)CC1`
Outgoing: 0.125 µg/mL

Incoming: GET MIC | system: Escherichia coli | item: `CS(=O)(=O)c1ccc([C@@H](O)[C@@H](CF)NC(=O)C(Cl)Cl)cc1`
Outgoing: 16 µg/mL

Incoming: GET MIC | system: Escherichia coli | item: `CCn1cc(C(=O)O)c(=O)c2cc(F)c(N3CCNCC3)cc21`
Outgoing: 0.25 µg/mL

Incoming: GET MIC | system: Escherichia coli | item: `CN(C)[C@@H]1C(O)=C(C(N)=O)C(=O)[C@@]2(O)C(O)=C3C(=O)c4c(O)cccc4[C@@](C)(O)[C@H]3C[C@@H]12`
Outgoing: 1 µg/mL

Incoming: GET MIC | system: Escherichia coli | item: `Cc1c(C(=O)NCCO)[n+]([O-])c2ccccc2[n+]1[O-]`
Outgoing: 512 µg/mL

Incoming: GET MIC | system: Escherichia coli | item: `CC1(C)S[C@@H]2[C@H](NC(=O)[C@H](N)c3ccccc3)C(=O)N2[C@H]1C(=O)O`
Outgoing: > 128 µg/mL

Incoming: GET MIC | system: Escherichia coli | item: `O=C(N[C@H](CO)[C@H](O)c1ccc([N+](=O)[O-])cc1)C(Cl)Cl`
Outgoing: 64 µg/mL

// data source = ChEMBL document CHEMBL1687783
